The measurements presented in this section are drawn from patent US20170210813A1.

Entries annotated with measured t1/2
Target of assay: T1, hPDGFRb.mmh (human, UniProt P09619 33-531)
T1 construct: Soluble monomeric construct; also called soluble human PDGFR-beta.mmh
T1 sequence (P09619 other isoform, or with tags, fused parts or gaps): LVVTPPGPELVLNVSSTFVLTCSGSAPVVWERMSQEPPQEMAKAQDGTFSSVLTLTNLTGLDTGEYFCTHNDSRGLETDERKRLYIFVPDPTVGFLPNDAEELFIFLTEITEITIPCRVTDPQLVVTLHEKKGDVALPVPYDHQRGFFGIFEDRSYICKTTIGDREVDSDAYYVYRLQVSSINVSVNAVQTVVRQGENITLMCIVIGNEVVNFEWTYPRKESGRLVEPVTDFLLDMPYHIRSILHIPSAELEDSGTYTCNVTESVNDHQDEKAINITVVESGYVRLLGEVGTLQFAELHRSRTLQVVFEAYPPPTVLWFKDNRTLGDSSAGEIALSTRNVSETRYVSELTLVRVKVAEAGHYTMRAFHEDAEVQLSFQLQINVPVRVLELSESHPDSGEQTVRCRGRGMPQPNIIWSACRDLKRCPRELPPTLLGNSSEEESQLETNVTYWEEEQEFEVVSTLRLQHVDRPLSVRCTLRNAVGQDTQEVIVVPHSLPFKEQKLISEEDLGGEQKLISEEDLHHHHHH
Run description: SPR, mAb captured, 25 C
Observed property: t1/2

# Binder, Result
data = [
    ("H4H3105S (antibody, human IgG4, V domains shown, human IgG4 Fc (H4H prefix)) VH: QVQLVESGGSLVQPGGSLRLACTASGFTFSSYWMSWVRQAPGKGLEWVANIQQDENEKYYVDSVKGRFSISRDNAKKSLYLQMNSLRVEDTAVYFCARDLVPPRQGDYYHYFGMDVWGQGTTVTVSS VL: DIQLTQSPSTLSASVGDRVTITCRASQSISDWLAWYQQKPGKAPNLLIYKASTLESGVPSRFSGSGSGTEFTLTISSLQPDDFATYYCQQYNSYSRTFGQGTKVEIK", "15 min"),
    ("H4H3102S (antibody, human IgG4, V domains shown, human IgG4 Fc (H4H prefix)) VH: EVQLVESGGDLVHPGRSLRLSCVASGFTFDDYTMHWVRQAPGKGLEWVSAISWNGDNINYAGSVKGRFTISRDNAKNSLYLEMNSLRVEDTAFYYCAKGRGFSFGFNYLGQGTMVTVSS VL: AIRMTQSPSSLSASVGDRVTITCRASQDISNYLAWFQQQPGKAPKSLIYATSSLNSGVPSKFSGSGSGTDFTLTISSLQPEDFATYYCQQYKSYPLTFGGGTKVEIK", "25 min"),
]
